# MEASURED_TARGET: EphB4, purified recombinant human (rhEphB4) (human, UniProt P54760 16-987)
# Sequence (P54760 16-987): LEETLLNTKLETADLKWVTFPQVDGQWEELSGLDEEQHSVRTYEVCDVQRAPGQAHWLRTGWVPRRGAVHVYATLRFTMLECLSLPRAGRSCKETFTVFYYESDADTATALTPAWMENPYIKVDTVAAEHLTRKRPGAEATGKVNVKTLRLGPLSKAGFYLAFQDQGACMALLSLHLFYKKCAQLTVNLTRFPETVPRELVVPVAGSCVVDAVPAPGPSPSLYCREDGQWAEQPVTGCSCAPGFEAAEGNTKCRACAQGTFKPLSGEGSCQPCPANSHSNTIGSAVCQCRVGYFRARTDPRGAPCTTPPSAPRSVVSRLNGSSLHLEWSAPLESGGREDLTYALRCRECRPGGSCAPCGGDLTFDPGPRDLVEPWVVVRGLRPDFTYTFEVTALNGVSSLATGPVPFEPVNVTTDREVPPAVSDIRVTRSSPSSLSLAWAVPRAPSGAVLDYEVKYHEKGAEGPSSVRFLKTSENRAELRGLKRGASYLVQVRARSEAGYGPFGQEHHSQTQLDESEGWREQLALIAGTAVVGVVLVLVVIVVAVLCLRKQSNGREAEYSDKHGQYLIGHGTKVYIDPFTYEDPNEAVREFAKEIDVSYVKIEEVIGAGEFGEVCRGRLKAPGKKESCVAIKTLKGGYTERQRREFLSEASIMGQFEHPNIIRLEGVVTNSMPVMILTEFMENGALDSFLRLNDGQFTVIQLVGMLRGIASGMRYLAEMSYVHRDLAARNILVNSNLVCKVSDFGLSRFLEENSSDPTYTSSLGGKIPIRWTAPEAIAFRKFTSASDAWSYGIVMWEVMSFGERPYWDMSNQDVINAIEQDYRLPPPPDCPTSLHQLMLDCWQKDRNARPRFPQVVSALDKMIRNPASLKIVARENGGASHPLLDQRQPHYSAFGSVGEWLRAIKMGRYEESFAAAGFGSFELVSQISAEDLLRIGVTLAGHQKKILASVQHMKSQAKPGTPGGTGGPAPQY
# MEASUREMENT_NOTES: SPR; EphB4 immobilised on sensor chips, peptides or CCPM-BIDEN-AP injected; BIACore 3000; BIDEN-AP data fitted to a 1:1 mass transfer interaction model; details in the Supplementary Information
# EXPERIMENTAL_CONTEXT: both partners purified
Non-standard residues stand in square brackets, D forms with d. No end group written: not given here.
QUANTITY_NAME: pKd
On this scale, pKd is minus log10 of a concentration expressed in M (mol/L).

Ask: Using the record for TN[dY]LFSPNGPIARAW (TNYL-RAW with L-Tyr-P3 replaced by D-Tyr; source: synthetic peptide) [BIDEN-AP (bi-directional ephrin agonist peptide), TNd(Y)LFSPNGPIARAW] , report its pKd.
Result: 8.15
